System: Candida albicans
experiment summary: Antimicrobial activity against Candida albicans
Format: functional
Field: MBC. Provide a value for each of the compounds that follow.

INPUT: Please look up its MBC: `Oc1cc(O)c2c(c1)O[C@H](c1ccc(O)c(O)c1)[C@@H](O)[C@@H]2c1c(O)cc2c(c1O)C[C@H](O)[C@@H](c1ccc(O)c(O)c1)O2`
OUTPUT: > 100 µg/mL

INPUT: Item: `Oc1cc(O)c2c(c1)O[C@H](c1cc(O)c(Oc3cc(O)c4c(c3)O[C@H](c3cc(O)c(O)c(O)c3)[C@H](O)C4)c(O)c1)[C@@H](O)C2`
OUTPUT: > 100 µg/mL

INPUT: Item: O=C1c2c(O)cc(O)cc2O[C@H](c2ccc(O)c(O)c2)[C@H]1O [(+)-TAXIFOLIN]
OUTPUT: > 100 µg/mL

====

System: Staphylococcus aureus
experiment summary: Antimicrobial activity against Staphylococcus aureus
Type: functional
readout name: MBC

INPUT: Please look up its MBC: `Oc1cc(O)c2c(c1)O[C@H](c1ccc(O)c(O)c1)[C@H](O)[C@H]2c1c(O)cc(O)c2c1O[C@H](c1ccc(O)c(O)c1)[C@H](O)C2`
OUTPUT: > 100 µg/mL

INPUT: Item: `Oc1cc(O)c2c(c1)O[C@H](c1ccc(O)c(O)c1)[C@H](O)[C@H]2c1c(O)cc(O)c2c1O[C@H](c1ccc(O)c(O)c1)[C@@H](O)C2`
OUTPUT: > 100 µg/mL

INPUT: Item: `Oc1cc(O)c2c(c1)O[C@H](c1ccc(O)c(O)c1)[C@@H](O)[C@@H]2c1c(O)cc(O)c2c1O[C@H](c1ccc(O)c(O)c1)[C@H](O)C2`
OUTPUT: > 100 µg/mL

====

Test system: Mycolicibacterium fortuitum
experiment summary: Antimicrobial activity against Mycobacterium fortuitum
Type: functional
readout name: MBC

INPUT: Please look up its MBC: Oc1cc(O)c2c(c1)O[C@@]1(c3ccc(O)c(O)c3)Oc3cc(O)c4c(c3[C@@H]2[C@H]1O)O[C@H](c1ccc(O)c(O)c1)[C@@H](O)C4 [PROANTHOCYANIDIN A1]
OUTPUT: > 100 mg/L

INPUT: Item: `Oc1cc(O)c2c(c1)O[C@H](c1ccc(O)c(O)c1)[C@@H](O)[C@@H]2c1c(O)cc(O)c2c1O[C@H](c1ccc(O)c(O)c1)[C@@H](O)C2`
OUTPUT: > 100 mg/L

INPUT: Item: `Oc1cc(O)c2c(c1)O[C@H](c1ccc(O)c(O)c1)[C@@H](O)[C@@H]2c1c(O)cc2c(c1O)C[C@H](O)[C@@H](c1ccc(O)c(O)c1)O2`
OUTPUT: > 100 mg/L
